The origin of these recorded values is PubChem BioAssay.

Measured viability of individual entries
Assay: SK-BR-3 cell growth inhibitors, pilot screen, 24 h, human (AID 572);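 further: compound exposure lasted between 18 and 24 h rather than exactly 24 h; 100% = carrier-treated control wells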
Settings: SK-BR-3 viability, CellTiter-Glo luminescence, at 10 µM, stronger effect = lower value
Value kind: viability (%)

- COCCNC(=O)C(c1ccc(C)o1)N(Cc1ccc(F)cc1)C(=O)Cn1nnc2ccccc21 (stereo unspecified): 89.5
- Cc1cc(C(=O)NCCN2CCCCC2C)n(-c2ccccc2)n1 (stereo unspecified): 87.5
- COCCNc1oc(-c2ccc(C)cc2)nc1C#N: 102
- Cc1cc(-c2ccccc2)c2c3c(cn2n1)c(=O)n(C)c(=O)n3C: 108
- COCCN1C(=O)C(=O)/C(=C(/O)c2cccc(S(=O)(=O)N(C)C)c2)C12C(=O)N(C)c1ccccc12 (stereo unspecified): 110
- COc1ccc(Cl)cc1C(=O)n1nc(C)cc1C: 104

* * *

Assay: growth inhibitors of H69AR lung tumor, primary screen, human, duplicate replicates (AID 580);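 further: 100% = mean luminescence of untreated wells and 0% = no signal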
Details: H69AR lung tumor cells viability, ATP luminescence, 72 h; at 10 µM; stronger effect = lower value
Value kind: viability (%)

• COc1ccccc1N1CCN(C(=O)CSc2nc(-c3ccccc3)cc(=O)[nH]2)CC1 = 88.1
• Nc1nc(-c2ccccc2Br)cs1 = 91.5
• COc1ccc(OC)c(C(=O)COC(=O)c2cc(C)oc2C)c1 = 92.7
• Cc1nnc(SCC(=O)N2CCN(S(=O)(=O)c3ccccc3)CC2)[nH]c1=O = 107
• CN1C(=S)SC(C)(NO)C1(C)C (centres undefined) = 104
• COc1ccc2c(c1)CCc1c(C(=O)NCc3cccnc3)noc1-2 = 103
• CCc1ccccc1NC(=O)CN(c1cccc(OC)c1)S(C)(=O)=O = 100
• CCOc1ccc(C(C)=O)cc1COc1ccc(-n2cnnn2)cc1 = 77.2
• CC(C)Cn1c(CN2CCN(c3ccccc3F)CC2)nc2c1c(=O)[nH]c(=O)n2C = 93
• CCOC(=O)Cn1c(CN2CCN(c3cccc(Cl)c3)CC2)nc2c1c(=O)[nH]c(=O)n2C = 72.5
• CCOc1ccc(C2CC(=O)NC3=C2C(=O)CCC3)cc1Cl (centres undefined) = 99.4
• NC1=NC(c2ccc(Br)cc2)n2c(nc3ccccc32)N1 (centres undefined) = 81.4
• Cc1cc(C)n(CCc2nc(-c3cccs3)cs2)n1 = 104
• COc1ccccc1Oc1coc2c(CN3CCN(C)CC3)c(O)ccc2c1=O = 99.5
• Cc1ccc(N2CC(C)Cn3c2nc2c3c(=O)n(CC(=O)OCc3ccccc3)c(=O)n2C)cc1C (centres undefined) = 93.8
• Cc1noc(C)c1S(=O)(=O)NCCN1CCN(c2ccccc2)CC1 = 96.1
• Cc1cc(NCCN2CCCCC2)n2c(nc3ccccc32)c1C#N = 85.1
• Cn1nnnc1SCC(=O)NCc1ccco1 = 95.8
• COC(=O)c1cc(Br)c(=O)n(CCC2=CCCCC2)c1 = 89.9
• O=C(CSCCSCC(=O)c1ccco1)c1ccco1 = 101
• O=C(O)CCc1ccc(-c2ccc(Br)cc2)n1CC(=O)O = 101
• COc1ccc(NCc2nnc(SCC(=O)Nc3cc(C)cc(C)c3)o2)cc1 = 81.9
• CC1=CCC2C(=O)N(c3nc(C)cc(C)n3)C(=O)C2C1 (centres undefined) = 91.1
• O=C1OCc2cc(NC(=O)C3CCCO3)ccc21 (centres undefined) = 104

* * *

Target: Receptor tyrosine-protein kinase erbB-2 (Homo sapiens) (UniProt P04626)
Sequence (P04626 whole entry, looked up): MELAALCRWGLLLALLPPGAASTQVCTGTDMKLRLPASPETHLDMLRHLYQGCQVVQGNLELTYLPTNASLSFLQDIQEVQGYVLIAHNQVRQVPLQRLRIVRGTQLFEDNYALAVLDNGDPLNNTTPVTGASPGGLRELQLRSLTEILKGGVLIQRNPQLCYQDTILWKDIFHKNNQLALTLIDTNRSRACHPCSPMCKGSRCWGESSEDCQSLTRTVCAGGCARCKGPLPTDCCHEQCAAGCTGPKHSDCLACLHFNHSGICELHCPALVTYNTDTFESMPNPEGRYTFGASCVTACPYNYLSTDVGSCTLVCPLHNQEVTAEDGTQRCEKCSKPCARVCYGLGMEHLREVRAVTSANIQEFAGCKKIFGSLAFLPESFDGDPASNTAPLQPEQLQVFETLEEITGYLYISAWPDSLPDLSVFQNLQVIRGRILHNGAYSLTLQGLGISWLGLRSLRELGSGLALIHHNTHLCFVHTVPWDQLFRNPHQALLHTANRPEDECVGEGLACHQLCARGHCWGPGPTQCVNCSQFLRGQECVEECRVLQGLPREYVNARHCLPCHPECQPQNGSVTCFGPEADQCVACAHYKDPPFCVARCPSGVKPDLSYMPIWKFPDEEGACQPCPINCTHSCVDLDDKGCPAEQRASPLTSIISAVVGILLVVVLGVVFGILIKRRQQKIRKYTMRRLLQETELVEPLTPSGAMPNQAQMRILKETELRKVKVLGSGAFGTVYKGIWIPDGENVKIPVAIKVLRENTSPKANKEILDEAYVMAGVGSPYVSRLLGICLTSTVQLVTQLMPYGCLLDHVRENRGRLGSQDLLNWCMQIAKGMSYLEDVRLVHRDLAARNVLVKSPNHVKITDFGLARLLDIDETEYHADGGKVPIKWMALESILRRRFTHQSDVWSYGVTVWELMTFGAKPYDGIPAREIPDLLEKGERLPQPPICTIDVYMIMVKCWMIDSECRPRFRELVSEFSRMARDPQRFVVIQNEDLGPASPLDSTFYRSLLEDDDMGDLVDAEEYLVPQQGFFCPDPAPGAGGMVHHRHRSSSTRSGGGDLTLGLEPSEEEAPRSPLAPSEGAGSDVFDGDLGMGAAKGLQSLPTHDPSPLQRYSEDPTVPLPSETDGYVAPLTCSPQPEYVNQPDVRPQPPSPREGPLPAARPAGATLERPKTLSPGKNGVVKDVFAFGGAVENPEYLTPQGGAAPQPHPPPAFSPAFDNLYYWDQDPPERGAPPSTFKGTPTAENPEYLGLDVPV
Assay: reducers of endogenous Her2 protein level, primary screen, SKBR3 breast tumor cells, AlphaScreen, ATP viability (AID 461);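 further: lower value means less Her2 protein in the cells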
Conditions: 18-24 h, at 10 µM, stronger effect = lower value
Measured Her2 level of individual entries
Value kind: Her2 level (%)

• Cc1oc(-c2ccccc2Cl)nc1CSCC(=O)N1CCCC1 = 86.5
• COC(=O)c1cc2oc(C)cc2n1CC(=O)N(C)c1ccccc1 = 92.5
• CCOc1ccccc1N1CCN(c2nc(N)c(C#N)c(CC#N)c2C#N)CC1 = 74.5
• Cc1cccc(C2CC(c3ccc(Br)cc3)Nc3nc(N)nn32)c1 (centres undefined) = 94
• O=S(=O)(NCC1CCCO1)c1cc(Cl)ccc1Br (centres undefined) = 121
• CC(C(=O)NCCCN1CCOCC1)n1cccc1C(=O)c1ccccc1 (centres undefined) = 76.5
• O=C(Nc1ccccn1)NC(C(F)(F)F)C(F)(F)F = 102
• COc1cccc(Oc2ccc(N)cn2)c1 = 106
• Cc1ccc(-c2csc3nnc(SCC(=O)NCc4ccco4)n23)cc1 = 84.5
• COC(=O)C1=C(C)C(c2cccs2)NC(=O)N1C (centres undefined) = 86.5
• CN(Cc1cccs1)c1ncnc2sccc12 = 78.5
• Fc1ccc(C(c2nnnn2Cc2ccco2)N2CCN(C3CCCCC3)CC2)cc1 (centres undefined) = 86.5
• CCOc1ccc2[nH]c(=O)c(CN(Cc3ccccc3)C(=O)N3CCCC3)cc2c1 = 77
• O=C(CN1C(=O)c2ccccc2C1=O)Nc1ccccc1C(=O)N1CCCC1 = 90.5
• O=C(O)CC1CCCC(c2ccccc2)C1=O (centres undefined) = 110
• Nc1ncnc2nc(SCCN3CCCCC3)[nH]c12 = 88
• Cc1cc(OCC(=O)N2CCCC2)cc(C)c1Cl = 96
• CCc1nnc(NC(=O)CSc2nnc(CSc3nc(C)cc(C)n3)n2CC)s1 = 116
• CCOc1ccc(C(c2nnnn2Cc2ccccc2)N2CCN(C(=O)c3ccco3)CC2)cc1 (centres undefined) = 106
• CCCCOc1ccc(NC(=O)Cn2c(=O)ccc3c(C)cc(C)nc32)cc1 = 104
• CSc1ccccc1N=CC1=C(O)CC(C)(C)CC1=O = 96
• CC(=O)c1ccc(-c2nc3ccccc3n2C)o1 = 81
• CN(C)c1nc(N)nc(-c2nc3ccccc3s2)n1 = 89
• COc1cccc(NC(=O)CSc2nnc(-c3cc(-c4ccccn4)nc4ccccc34)o2)c1 = 85

* * *

Measured viability of individual entries
Assay: reversal of MRP1-mediated doxorubicin resistance, pilot screen, H69AR cells, doxorubicin co-treatment (AID 601)
Settings: H69AR cells, CellTiter-Glo, 72 h; compound alone cytotoxicity; at 10 µM
Value kind: viability (%)

* Cc1noc(C)c1CSc1nnc(-c2ccncc2)n1-c1cccc(Cl)c1C | 88.4
* CN1C(=O)CCC1(O)c1ccccc1 (stereo unspecified) | 92.3
* OC(COc1ccccc1)CN1C2=NCCCN2c2ccccc21 (stereo unspecified) | 92.6
* Cc1cc(C(=O)OCCO)c(C#N)c(N)n1 | 92.1
* CC1CCN(S(=O)(=O)c2cn(CC(=O)N3CCN(C)CC3)c(=O)c3ccccc23)CC1 | 97.4
* CC(=O)c1ccc(OCC(O)CN2CC(C)OC(C)C2)cc1 (stereo unspecified) | 105
* CCOC(=O)N1CCC(NC(=O)CSCc2nc(-c3cccc(OC)c3)oc2C)CC1 | 106
* NS(=O)(=O)c1ccc(NCc2c(F)cccc2Cl)cc1 | 82.9
* CC1(C)CNC(=O)c2sc(N3CCOCC3)nc2C1 | 77.3
* CCOc1ccc(NC(=O)CN2CCN(CC(=O)Nc3ccc(F)c(F)c3)CC2)cc1 | 79.8
* O=C(c1cnn2c(C(F)(F)F)cc(-c3ccco3)nc12)N1CCc2ccccc2C1 | 89.6
* COC(=O)c1ccc(-c2sc3nc(N4CCOCC4)c4c(c3c2N)CCCC4)o1 | 91
* Cn1c(=O)c2c(nc(SCCCC#N)n2Cc2ccccc2F)n(C)c1=O | 71.2
* COc1ccccc1S(=O)(=O)n1cc(Cc2ccccc2)c(N)n1 | 104
* O=C(O)c1cc(/C=N\O)ccc1OCc1ccccc1 | 103
* CC1CCCCC1NC(=O)Cn1nnc(-c2ccc(Cl)cc2)n1 (stereo unspecified) | 91.9
* COc1ccc(CCNc2nc(N3CCOCC3)nc(N3CCOCC3)n2)cc1OC | 96.7
* O=C(CSc1nnc(Cn2nnc(-c3ccccc3)n2)n1-c1ccccc1)Nc1ccc(F)cc1 | 75.7
* CCOC(=O)C1CCN(Cc2c(O)ccc3ccccc23)CC1 | 98.2
* COC(=O)CCN1CCC(C(N)=O)CC1 | 100
* CCOC(=O)c1ccc(NC(=O)COc2ccc(-n3cnnn3)cc2)cc1 | 89
* CCCCOc1ccc(-c2nnn(CC(=O)Nc3ncc(CC(=O)OCC)s3)n2)cc1 | 84
* COc1ccccc1N1CCN(C(=O)c2oc3cc(C)c(C)cc3c2C)CC1 | 92.7
* Cc1ccc(S(=O)(=O)N2CCC(C(=O)N3CCC[C@H]3C(=O)NCc3ccccc3)CC2)cc1 | 90.8
* COc1ccc2c(c1OC)C(=O)OC2Nn1cncn1 (stereo unspecified) | 103
* CCC(C)NC(=O)C1CCCN(S(=O)(=O)c2ccc(-n3cnnn3)cc2)C1 (stereo unspecified) | 103
* CC(C)(C)NC(=O)C(c1ccco1)N(C(=O)Cn1nnc(-c2ccc(F)cc2)n1)c1ccccc1F (stereo unspecified) | 99.3
* Cc1ccc2oc(C(=O)Nc3c(C)n(C)n(-c4ccccc4)c3=O)c(C)c2c1 | 104
* CN(C)S(=O)(=O)c1ccc(S(=O)(=O)Nc2ccc3c(c2)oc2ccccc23)cc1 | 73.2
* CC(C)(C)c1cc(C(=S)N2CCN(CCO)CC2)cc(C(C)(C)C)c1O | 96.2
* COc1ccc(OC)c(CNC(=O)COc2cc(=O)n(C)c3ccccc23)c1 | 88
* CN=C(Nc1cc(C)nn1-c1ccccc1)c1ccccc1 | 93.6
* O=C(CCn1c(=O)sc2ccccc21)Nc1cccnc1 | 99.6
* Cc1c[nH]c2cccc(OCC(O)CNC(C)(C)C)c12 (stereo unspecified) | 88.3
* C=CCn1c(=O)/c(=C/c2ccc(O)cc2)s/c1=C(/C#N)c1nnc2n1CCCCC2 | 85.5
* CN(C)c1nc(N)nc(-c2nc3ccccc3s2)n1 | 91.7
* COc1ccc(CN(C(=O)c2cccs2)c2nccs2)cc1OC | 94.6
* CCc1nc(C)c(C#N)c2cc(OC)c(OC)cc12 | 82.4
* Cc1cc(=O)n(-c2ccc3ccccc3n2)[nH]1 | 73.4
* Nc1nnc(SCC(=O)N2CCc3ccccc32)n1-c1ccccc1 | 101
* Cc1ccc2cc(C#N)c(NCCCNC(=O)C3CCCO3)nc2c1 (stereo unspecified) | 99
* Cn1c(/C(C#N)=C/Nc2ccccn2)nc2ccccc21 | 73.5
* Cc1cc(C(=O)CN2C(=O)c3ccccc3C2=O)c(C)n1Cc1cccs1 | 86.3
* CC(C)=CC(=O)Nc1ccc(Br)cc1 | 98.2
* CCCC(=O)OCCn1c(Br)nc2c1c(=O)[nH]c(=O)n2C | 93.5
* CCCCP(=O)(CCCC)Cc1ccccc1O | 97.1
